Cited source for all entries: ChEMBL document CHEMBL1143422

# System: Human immunodeficiency virus 2
# assayText: Antiviral activity against HIV2 ROD with protease V47A mutation infected in human CEM cells assessed as inhibition of virus production after 7 days by Lenti-RT activity assay
# Assay type: functional, organism-based
# conditionContext: Human immunodeficiency virus 2, ROD, CCRF-CEM, 168 h
observable: EC50
Form entry: enter the amount, then its unit.

As a guide, the following entries are already answered.
CC(C)(C)NC(=O)[C@@H]1C[C@@H]2CCCC[C@@H]2CN1C[C@@H](O)[C@H](Cc1ccccc1)NC(=O)[C@H](CC(N)=O)NC(=O)c1ccc2ccccc2n1    0.2 nM
Cc1c(O)cccc1C(=O)N[C@@H](CSc1ccccc1)[C@H](O)CN1C[C@H]2CCCC[C@H]2C[C@H]1C(=O)NC(C)(C)C    177 nM

Here is the next item to consider.
Can you look up the measured EC50 of "CC(C)CN(C[C@@H](O)[C@H](Cc1ccccc1)NC(=O)O[C@H]1CO[C@H]2OCC[C@H]21)S(=O)(=O)c1ccc(N)cc1" for me?
10 nM

* * *

Answer each item with its documented EC50.
# Test system: Human immunodeficiency virus 2
# assayText: Antiviral activity against HIV2 CBL-23 infected in human PBMC assessed as inhibition of virus production after 5 days by Lenti-RT activity assay
# Format: functional, organism-based
# conditionContext: Human immunodeficiency virus 2, CBL-23, 120 h
Give bare numbers, in nM.

CC(C)(C)NC(=O)[C@@H]1C[C@@H]2CCCC[C@@H]2CN1C[C@@H](O)[C@H](Cc1ccccc1)NC(=O)[C@H](CC(N)=O)NC(=O)c1ccc2ccccc2n1    8
CC(C)(C)NC(=O)[C@@H]1CN(Cc2cccnc2)CCN1C[C@@H](O)C[C@@H](Cc1ccccc1)C(=O)N[C@H]1c2ccccc2C[C@H]1O.O    33
Cc1c(O)cccc1C(=O)N[C@@H](CSc1ccccc1)[C@H](O)CN1C[C@H]2CCCC[C@H]2C[C@H]1C(=O)NC(C)(C)C    83
COC(=O)N[C@H](C(=O)N[C@@H](Cc1ccccc1)[C@@H](O)CN(Cc1ccc(-c2ccccn2)cc1)NC(=O)[C@@H](NC(=O)OC)C(C)(C)C)C(C)(C)C    39
CC(C)CN(C[C@@H](O)[C@H](Cc1ccccc1)NC(=O)O[C@H]1CO[C@H]2OCC[C@H]21)S(=O)(=O)c1ccc(N)cc1    83

// each listed molecule needs a value for EC50
1. CC(C)c1nc(CN(C)C(=O)N[C@H](C(=O)N[C@@H](Cc2ccccc2)C[C@H](O)[C@H](Cc2ccccc2)NC(=O)OCc2cncs2)C(C)C)cs1
2. Cc1cccc(C)c1OCC(=O)N[C@@H](Cc1ccccc1)[C@@H](O)C[C@H](Cc1ccccc1)NC(=O)[C@H](C(C)C)N1CCCNC1=O
3. CC(C)CN(C[C@@H](O)[C@H](Cc1ccccc1)NC(=O)O[C@H]1CCOC1)S(=O)(=O)c1ccc(N)cc1

[514, 12, 939]

* * *

# System: Human immunodeficiency virus 2
# assayText: Antiviral activity against HIV2 MS infected in human MT4 cells assessed as inhibition of virus production after 5 days by Lenti-RT activity assay
# Type: functional, organism-based
# conditionContext: Human immunodeficiency virus 2, MT4, 120 h
observable: EC50
Write your answer as a measured quantity: the number, then the unit.

Any idea what EC50 came out for "Cc1cccc(C)c1OCC(=O)N[C@@H](Cc1ccccc1)[C@@H](O)C[C@H](Cc1ccccc1)NC(=O)[C@H](C(C)C)N1CCCNC1=O" on Human immunodeficiency virus 2?
6 nM
